- target-or-system: human α7 nicotinic acetylcholine receptor (HEK cell line stably expressing human RIC-3 and human α7) (Homo sapiens, UniProt P36544)
- Construct: host or cells: HEK cell line (PrecisION hnAChR α7/RIC-3)
- Sequence (P36544 23-502): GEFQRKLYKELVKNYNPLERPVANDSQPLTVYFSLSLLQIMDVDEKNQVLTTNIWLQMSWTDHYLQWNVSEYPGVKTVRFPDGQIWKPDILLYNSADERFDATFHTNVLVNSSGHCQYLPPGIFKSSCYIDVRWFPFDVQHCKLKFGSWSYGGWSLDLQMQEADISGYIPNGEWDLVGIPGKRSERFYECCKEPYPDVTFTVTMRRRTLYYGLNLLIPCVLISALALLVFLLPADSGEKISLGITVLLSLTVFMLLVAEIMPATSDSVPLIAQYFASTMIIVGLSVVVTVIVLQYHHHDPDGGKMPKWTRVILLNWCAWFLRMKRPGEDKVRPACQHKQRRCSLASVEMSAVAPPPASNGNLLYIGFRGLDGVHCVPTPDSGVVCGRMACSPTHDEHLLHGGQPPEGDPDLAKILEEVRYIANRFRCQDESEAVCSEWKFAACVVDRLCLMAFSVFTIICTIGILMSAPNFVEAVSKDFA
- test-description: Automated patch-clamp electrophysiology functional assay (Assay A), IonFlux HT, whole-cell population patch
- Type: cell-based
- measurement-context: HEK cells expressing human α7/RIC-3; test compound with or without 40 μM acetylcholine; holding potential −60 mV; room temperature; read-out: α7 nAChR Potency
- Experimental: The α7 nAChR positive allosteric modulator (PAM) activity of the present compounds may be tested using assays known in the art. […] The assay was performed using the IonFlux HT in a whole-cell, population patch configuration. See Golden et al. Assay Drug Dev. Technol. […] The compounds were assessed for their ability to modulate the function of the human 7 nAChR stably expressed in a HEK cell line both in the presence, and in the absence of the natural 7 agonist acetylcholine. […]
pEC50: −log10 of the molar value.
experimental-readout: pEC50

Examples with answers:
- compound: "NS(=O)(=O)N1CCC2(CC1)C[C@H]2c1noc(-c2ccnnc2C2CC2)n1"
  value-observed: "5.30 to 6.30"
- compound: "COc1ccc(Cl)cc1-c1noc(C2CC23CCN(S(=O)(=O)CC2CCCCO2)CC3)n1 (mixture of isomers)"
  value-observed: "5.30 to 6.30"
- compound: "NS(=O)(=O)N1CCC2(CC1)[C@H](c1noc(-c3conc3C(F)(F)F)n1)C2(F)F"
  value-observed: "5.30 to 6.30"

For the compound "Cc1ccc(C(F)(F)F)nc1-c1nc([C@@H]2CC23CCN(S(N)(=O)=O)CC3)no1" , what pEC50 is on record?
6.30 to 7.00

So what's the measured pEC50 for this one? "Cc1cnc(OC(F)F)cc1-c1nc([C@@H]2C(F)(F)C23CCN(S(N)(=O)=O)CC3)no1"
> 7.00

* * *

- target-or-system: human α7 nicotinic acetylcholine receptor (HEK cell line stably expressing human RIC-3 and human α7) (Homo sapiens)
- Construct: host or cells: HEK cell line (PrecisION hnAChR α7/RIC-3)
- test-description: Automated patch-clamp electrophysiology functional assay (Assay A), IonFlux HT, whole-cell population patch
- Format: cell-based
- measurement-context: α7 nAChR Potency, HEK cells expressing human α7/RIC-3; test compound with or without 40 μM acetylcholine; holding potential −60 mV; room temperature
- Method: The α7 nAChR positive allosteric modulator (PAM) activity of the present compounds may be tested using assays known in the art. […] The assay was performed using the IonFlux HT in a whole-cell, population patch configuration. See Golden et al. Assay Drug Dev. Technol. […] The compounds were assessed for their ability to modulate the function of the human 7 nAChR stably expressed in a HEK cell line both in the presence, and in the absence of the natural 7 agonist acetylcholine. […]
Documented EC50 across a set of molecules

- smiles-representation: "NS(=O)(=O)N1CCC2(CC1)C[C@H]2c1nnc(-c2cccc(OC(F)F)c2)s1"
  experimental-readout: "EC50"
  value-observed: "100 to 500 nM"

Alright, here's another molecule for you.
Any idea what EC50 was measured for "Cc1onc(C2CC2)c1-c1nnc([C@@H]2CC23CCN(S(N)(=O)=O)CC3)o1" ?
100 to 500 nM

* * *

- target-or-system: human α7 nicotinic acetylcholine receptor (HEK cell line stably expressing human RIC-3 and human α7) (Homo sapiens)
- Construct: host or cells: HEK cell line (PrecisION hnAChR α7/RIC-3)
- test-description: Automated patch-clamp electrophysiology functional assay (Assay A), IonFlux HT, whole-cell population patch
- Format: cell-based
- measurement-context: automated patch-clamp electrophysiology functional assay (Assay A); read-out: α7 nAChR EC50
pEC50: −log10 of the molar value.
experimental-readout: pEC50

- compound: "NS(=O)(=O)N1CCC2(CC1)[C@H](c1nc(-c3ccnn3CC(F)(F)F)no1)C2(F)F"
  value-observed: 6.66

1 = NS(=O)(=O)N1CCC2(CC1)C[C@H]2c1noc(-c2ccnc(OCC(F)(F)F)c2)n1
2 = NS(=O)(=O)N1CCC2(CC1)[C@H](c1cc(-c3ccc(F)cc3C(F)(F)F)on1)C2(F)F
3 = NS(=O)(=O)N1CCC2(CC1)[C@H](c1coc(-c3ccnc(OC(F)F)c3)n1)C2(F)F
4 = Cc1ccc(C2CC2)c(-c2nc([C@@H]3C(F)(F)C34CCN(S(N)(=O)=O)CC4)no2)c1
Put the compounds in ascending order of pEC50. I would appreciate it if you listed the labels in the requested order.
1, 3, 2, 4

a = Cc1ccc(C)c(-c2nc(C3C(F)(F)C34C3CCC4CN(S(N)(=O)=O)C3)no2)c1 (single isomer, unassigned)
b = NS(=O)(=O)N1CCC2(CC1)C(c1nsc(N3CCCCC3)n1)C2(F)F (racemic)
Among a and b , which shows a numerically higher pEC50 result? Answer with the label corresponding to your selection.
a
(a: 7.06, b: 6.00)

* * *

- target-or-system: human α7 nicotinic acetylcholine receptor (HEK cell line stably expressing human RIC-3 and human α7) (Homo sapiens, UniProt P36544)
- Construct: host or cells: HEK cell line (PrecisION hnAChR α7/RIC-3)
- test-description: Automated patch-clamp electrophysiology functional assay (Assay A), IonFlux HT, whole-cell population patch
- Assay type: cell-based
- measurement-context: HEK cells expressing human α7/RIC-3; test compound with or without 40 μM acetylcholine; holding potential −60 mV; room temperature; read-out: α7 nAChR Potency
Measured EC50, listed per entry for reference.

Answered cases to consult:
- molecule: "Cn1nc(C(F)(F)F)cc1-c1nc([C@@H]2C(F)(F)C23CCN(S(N)(=O)=O)CC3)no1"
  EC50: "500 to 5000 nM"
- molecule: "Cc1cc(C)c(-c2nc(C3CC34CCN(S(N)(=O)=O)CC4)no2)cc1C (stereo not shown)"
  EC50: "100 to 500 nM"
- molecule: "NS(=O)(=O)N1CCC2(CC1)C[C@H]2c1noc(C2CC3(CCC3)C2)n1"
  EC50: "500 to 5000 nM"
- molecule: "COc1ccc(Cl)cc1-c1nc(C2CC23CCN(S(C)(=O)=O)CC3)no1 (single isomer, unassigned) [Example 26]"
  EC50: "100 to 500 nM"
- molecule: "NS(=O)(=O)N1CCC2(CC2c2nc(-c3conc3C3CC3)no2)C(F)C1 (single isomer, unassigned) [Example I6]"
  EC50: "500 to 5000 nM"
- molecule: "Cc1ccccc1-c1nnc([C@@H]2C(F)(F)C23CCN(S(N)(=O)=O)CC3)s1"
  EC50: "100 to 500 nM"
- molecule: "CC(C)(O)c1ccc(-c2nc([C@@H]3CC34CCN(S(N)(=O)=O)CC4)no2)cc1"
  EC50: "500 to 5000 nM"
- molecule: "CC(C)(C)n1ncc(-c2nc([C@@H]3C(F)(F)C34CCN(S(N)(=O)=O)CC4)no2)c1C(F)(F)F"
  EC50: "100 to 500 nM"

I have this molecule here, COc1ccc(Cl)cc1-c1noc(C2CC23CCN(C(=O)NC2CCCCC2)CC3)n1 (racemic) , and I need its recorded EC50.
500 to 5000 nM

Value lookup for EC50; key = "Cc1onc(-c2nc([C@@H]3CC34CCN(S(N)(=O)=O)CC4)no2)c1C"
500 to 5000 nM

Requested field: EC50. Item: "NS(=O)(=O)N1CCC2(CC1)[C@H](c1csc(-c3conc3C3CC3)n1)C2(F)F"
100 to 500 nM

Using the record for "NS(=O)(=O)N1CCC2(CC1)C[C@H]2c1noc(-c2ccc(OC(F)F)cc2)n1" , report its EC50.
500 to 5000 nM

Need EC50 of "Cn1ncc(C(F)(F)F)c1-c1nc([C@@H]2CC23CCN(S(N)(=O)=O)CC3)no1" , thanks.
100 to 500 nM

Fill blank: measured EC50 of the molecule COc1ccc(Cl)cc1-c1noc(C2CC23CCN(S(=O)(=O)NCc2ccccn2)CC3)n1 (racemic) is ____.
500 to 5000 nM

Give the measured EC50 of "Cc1cnn(C)c1-c1nc([C@@H]2CC23CCN(S(N)(=O)=O)CC3)no1" .
500 to 5000 nM

GET /values?readout=EC50&item= NS(=O)(=O)N1CCC2(CC1)C(c1nc(-c3ccc(F)cc3C(F)(F)F)no1)C2(Cl)Cl (racemic)
500 to 5000 nM

* * *

- target-or-system: human α7 nicotinic acetylcholine receptor (HEK cell line stably expressing human RIC-3 and human α7) (Homo sapiens, UniProt P36544)
- Construct: host or cells: HEK cell line (PrecisION hnAChR α7/RIC-3)
- test-description: Automated patch-clamp electrophysiology functional assay (Assay A), IonFlux HT, whole-cell population patch
- Type: cell-based
- measurement-context: HEK cells expressing human α7/RIC-3; test compound with or without 40 μM acetylcholine; holding potential −60 mV; room temperature; read-out: α7 nAChR Potency
pEC50: −log10 of the molar value.
experimental-readout: pEC50

Reference set (8 entries):
- compound: "NS(=O)(=O)N1CCC2(CC1)C[C@H]2c1nc(-c2ccc(F)cc2C(F)(F)F)no1 [Example 5]"
  pEC50: "5.30 to 6.30"
- compound: "Cc1nn(C)c(-c2nc([C@@H]3C(F)(F)C34CCN(S(N)(=O)=O)CC4)no2)c1C [Example 22]"
  pEC50: "> 7.00"
- compound: "Cc1cnn(C)c1-c1nc([C@@H]2C(F)(F)C23CCN(S(N)(=O)=O)CC3)no1 [Example 9]"
  pEC50: "> 7.00"
- compound: "Cn1cc(-c2conc2C2CC2)nc1[C@@H]1C(F)(F)C12CCN(S(N)(=O)=O)CC2 [Example G7]"
  pEC50: "5.30 to 6.30"
- compound: "COc1ccc(Cl)cc1-c1noc([C@@H]2CC23CCN(S(N)(=O)=O)CC3)n1 [Example A1]"
  pEC50: "6.30 to 7.00"
- compound: "NS(=O)(=O)N1CCC2(CC1)C[C@H]2c1noc(-c2conc2C2CC2)n1 [Example E26]"
  pEC50: "5.30 to 6.30"
- compound: "COc1ccc(Cl)cc1-c1noc(C2CC23CCN(S(=O)(=O)c2ccc4ncsc4c2)CC3)n1 (racemic) [Example B7]"
  pEC50: "5.30 to 6.30"
- compound: "NS(=O)(=O)N1CCC2(CC1)C(c1nc(-c3c(C4CC4)noc3C(F)(F)F)no1)C2(F)F (stereo not shown) [Example C15]"
  pEC50: "> 7.00"

Please look up its pEC50: NS(=O)(=O)N1CCC2(CC1)C(c1noc(-c3ccccc3C3CC3)n1)C2(F)F (stereo not shown) [Example D26]
> 7.00

Request the reported pEC50 associated with NS(=O)(=O)N1CCC2(CC1)CC2c1nc(-c2c(C(F)(F)F)noc2C2CC2)no1 (stereo not shown) [Example C12]
6.30 to 7.00
